test.target: T1, human insulin-regulated aminopeptidase (IRAP) / angiotensin IV (AT4) receptor (human, UniProt Q9UIQ6 1-1025)
T1 construct: whole, on cells; also called AT4 receptor/IRAP; hIRAP
T1 sequence (Q9UIQ6 whole entry): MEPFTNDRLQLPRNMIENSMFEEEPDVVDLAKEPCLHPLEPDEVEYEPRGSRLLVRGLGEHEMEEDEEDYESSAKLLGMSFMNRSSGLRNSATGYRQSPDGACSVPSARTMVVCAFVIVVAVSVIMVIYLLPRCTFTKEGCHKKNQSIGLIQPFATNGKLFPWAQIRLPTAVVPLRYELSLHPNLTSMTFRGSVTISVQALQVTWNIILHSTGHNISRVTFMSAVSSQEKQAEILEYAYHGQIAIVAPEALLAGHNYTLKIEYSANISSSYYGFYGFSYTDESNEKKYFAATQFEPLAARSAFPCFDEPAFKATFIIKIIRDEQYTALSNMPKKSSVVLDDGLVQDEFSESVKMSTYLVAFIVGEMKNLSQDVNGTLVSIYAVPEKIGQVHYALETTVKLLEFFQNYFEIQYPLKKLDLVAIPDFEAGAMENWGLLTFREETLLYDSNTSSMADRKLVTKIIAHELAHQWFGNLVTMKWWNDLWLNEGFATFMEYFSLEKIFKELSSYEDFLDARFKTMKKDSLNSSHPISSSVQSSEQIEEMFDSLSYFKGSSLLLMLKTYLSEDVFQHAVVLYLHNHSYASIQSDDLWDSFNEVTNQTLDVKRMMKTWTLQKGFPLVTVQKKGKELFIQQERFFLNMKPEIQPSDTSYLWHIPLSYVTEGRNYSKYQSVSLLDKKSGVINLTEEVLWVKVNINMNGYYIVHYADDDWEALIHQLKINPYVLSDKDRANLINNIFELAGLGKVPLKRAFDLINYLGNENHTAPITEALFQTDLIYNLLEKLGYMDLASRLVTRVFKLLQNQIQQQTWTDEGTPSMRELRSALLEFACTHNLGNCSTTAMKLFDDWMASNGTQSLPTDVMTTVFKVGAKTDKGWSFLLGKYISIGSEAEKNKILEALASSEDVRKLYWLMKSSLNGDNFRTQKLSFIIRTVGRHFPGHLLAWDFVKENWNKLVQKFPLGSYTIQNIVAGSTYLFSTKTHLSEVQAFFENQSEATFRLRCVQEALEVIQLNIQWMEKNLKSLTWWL
experiment: radioligand displacement of 125I-Nle-Ang IV
parameter.measured: IC50
Hi, when you answer, please include the unit after the number. Thanks!

Quick note, IC50 for LVVYPWTQRF (Globin fragment purified from sheep cerebral cortex; synthetic peptide used in the assays; also called LVV-H7; LV-H7) [LVV-hemorphin 7 (LVVYPWTQRF)] landed at 140 nM

Source of measurements: patent US20050020519A1
